Exercise: for every item that follows, state its recorded % IOD.
Test system: specific serum IgG antibodies in sera from patients diagnosed with a H. pylori infection
Assay: Quantitative Western-blot analysis (integrated optical density) of patient sera on H. pylori whole cell lysate antigens
Assay type: binding, human
Conditions: antigens from Hp02 (FIG. 3); sera 3 months post therapy

HpaA-neuraminyl-lactose-hemagglutinin precursor (protein, 32 kd H. pylori antigen band in whole cell lysate, identified as HpaA) MKKGSLAIVLGSLLASGAFYTALADGMPAKQQHNNTGESVELHFHYPIKGKQEPKNSHLVVLIEPKIEINKVIPESYQKEFEKSLFLQLSSFLERKGYSVSQFKDASEIPQDIKEKALLVLRMDGNVAILEDIVEESDALSEEKVIDMSSGYLNLNFVEPKSEDIIHSFGIDVSKIKAVIERVELRRTNSGGFVPKTFVHRIKETDHDQAIRKIMNQAYHKVMVHITKELSKKHMEHYEKVSSEMKKRK; 32.30 +/− 13.97%
RPL7/L12 50S ribosomal protein L7/L12 (protein, 15 kd H. pylori antigen band in whole cell lysate, identified as RPL7/L12) MNISVNPYLMAVVFVVFVLLLWAMNVWVYRPLLAFMDNRQAEIKDSLAKIKTDNAQSVEIGHQIEALLKEAAEKRREIIAEAIQKATESYDAVIKQKENELNQEFEAFAKQLQNEKQALKEQLQAQMPVFEDELNKRVAMGLGS; 36.29 +/− 14.99%
Omp18-peptido-glycan associated lipoprotein precursor (protein, 30 kd H. pylori antigen band in whole cell lysate, identified as Omp18) MKRSSVFSFLVAFLLVAGCSHKMDNKTVAGDVSAKTVQTAPVTTEPAPEKEEPKQEPAPVVEEKPAVESGTIIASIYFDFDKYEIKESDQETLDEIVQKAKENHMQVLLEGNTDEFGSSEYNQALGVKRTLSVKNALVIKGVEKDMIKTISFGETKPKCAQKTRECYKENRRVDVKLMK; 50.71 +/− 11.48%

Request: What value of % IOD has been reported for the following molecule? HP0596 a hypothetical protein (protein, 23 kd H. pylori antigen band in whole cell lysate, identified as HP0596) MLEKSFLKSKQLFLCGLGVLMLQACTCPNTSQRNSFLQDVPYWMLQNRSEYITQGVDSSHIVDGKKTEEIEKIATKRATIRVAQNIVHKLKEAYLSKTNRIKQKITNEMFIQMTQPIYDSLMNVDRLGIYINPNNEEVFALVRARGFDKDALSEGLHKMSLDNQAVSILVAKVEEIFKDSVNYGDVKVPIAM
Response: 35.86 +/− 11.88%
